assay: Quorum luxo inducers, light production, v cholerae bh1651 luxod47e, confirmatory dose response (AID 624254); settings: V. cholerae BH1651 luxOD47E, luciferase light induction, 6 h; at 50 µM (top of the series)
The source made the active and inactive calls. The rule behind the calls is not given here.

# molecule, activation (light increase)
data = [
    ("C=Cn1c(C(=O)O)ccc1-c1cccs1", "inactive"),
    ("COC(=O)c1c(-c2ccc(Br)cc2)noc1N", "inactive"),
    ("COc1ccc(S(=O)(=O)N2CCOCC2)cc1NC(=O)CSc1nnc(C2CC2)n1C1CC1", "inactive"),
    ("Cc1cccc(C(=O)NCC(c2cccs2)N2CCOCC2)c1 (stereo not drawn)", "inactive"),
    ("Cc1ccc(C)c(N(C(=O)Cn2nnc(-c3cccs3)n2)C(C(=O)NC2CC2)c2ccc(C)o2)c1 (stereo not drawn)", "inactive"),
    ("Cc1ccc(C)c(S(=O)(=O)Nc2ccc(-n3cnnn3)cc2)c1", "inactive"),
    ("CN(C)S(=O)(=O)c1ccc(NC(=S)NC(=O)Cc2ccccc2)cc1", "inactive"),
    ("COc1ccccc1CNC(=O)COC(=O)c1n[nH]c2ccccc12", "inactive"),
    ("CCn1c(SCC(=O)Nc2ccc3c(c2)OCCO3)nnc1-c1ccccn1", "inactive"),
    ("O=C(Nc1cccc(Cl)c1)Nc1ccc(Cl)cn1", "inactive"),
    ("O=C(c1cc2ccccc2cc1O)N1CCN(c2ccccc2O)CC1", "inactive"),
    ("O=c1ncn(-c2cccc(Cl)c2)c2ccccc12", "inactive"),
    ("CCOc1ccc(S(=O)(=O)N(CCO)CCO)cc1-c1nc2c(C(C)(C)C)nn(C)c2c(=O)[nH]1", "inactive"),
    ("COc1cccc(Nc2nc(NCCO)c3ccccc3n2)c1", "inactive"),
    ("CCCN1CCN(C(=O)CCCNC(=O)Cn2cnc3sc(C)c(C)c3c2=O)CC1", "inactive"),
    ("CCC1(CC)NC(=O)N(CC(=O)OCC(=O)NC(=O)c2ccccc2OC)C1=O", "inactive"),
    ("COC(=O)c1cc(COC(=O)c2ccc(OC)c(S(=O)(=O)N3CCCC3)c2)oc1C", "inactive"),
    ("O=C(COC(=O)CNC(=O)c1ccco1)NCCN1C(=O)CSC1=O", "inactive"),
    ("CN(CC(=O)Nc1ccc(F)c(F)c1F)C(=O)C1CCC1", "inactive"),
    ("CC(C)CC(=O)N1CCN(Cc2ccccc2Br)CC1", "inactive"),
    ("C=Cn1c(C(=O)O)ccc1-c1ccccc1", "inactive"),
    ("COc1ccc(NS(=O)(=O)c2cccc(C(=O)N3CCCC(C)C3)c2)cc1 (stereo not drawn)", "inactive"),
    ("Cn1cnc(S(=O)(=O)Nc2ccccc2Cl)c1", "inactive"),
    ("Cn1ccnc1S(=O)(=O)Nc1ccc(OC(F)(F)F)cc1", "inactive"),
    ("Cc1ccc(S(=O)(=O)NCCC(=O)OCC(=O)N(Cc2ccccc2)C(C)(C)C)cc1C", "inactive"),
    ("CC(=O)C(CC(=O)N1CCCc2ccccc21)C(=O)Nc1ccc(F)cc1 (stereo not drawn)", "inactive"),
    ("O=C(NCc1ccco1)c1cc2n(n1)C(C(F)(F)F)CC(c1ccc(Cl)c(Cl)c1)N2 (stereo not drawn)", "inactive"),
    ("O=S(=O)(Cc1ccc(Cl)cc1)N1CCN(Cc2ccccc2)CC1", "inactive"),
    ("COc1ccc(CCNC(=O)c2nnn(-c3ccc4c(c3)OCCO4)c2N)cc1OC", "inactive"),
    ("Cc1noc(C)c1NC(=O)Nc1cccc2c1O[C@@H](CN(C)S(=O)(=O)c1cccs1)[C@@H](C)CN([C@@H](C)CO)C2=O", "inactive"),
    ("C[C@H](CO)N1C[C@H](C)[C@H](CN(C)S(=O)(=O)c2ccccc2)Oc2c(NC(=O)Nc3ccc4c(c3)OCO4)cccc2C1=O", "inactive"),
    ("Cc1cc2c(ncn2C)c(NS(=O)(=O)c2cc(Cl)ccc2Cl)c1C", "inactive"),
    ("CC12CCC(=O)N1C(C(=O)NNC(=O)COc1ccc(Br)cc1)CS2 (stereo not drawn)", "inactive"),
    ("O=c1oc2c(CN3CCOCC3)c(O)c(Cl)cc2c2c1CCC2", "inactive"),
    ("CCOC(=O)c1c(NC(=O)COC(=O)Cc2c[nH]c3ccccc23)sc(C(=O)N(C)C)c1C", "inactive"),
    ("CCCS(=O)(=O)N1CCCC(C(=O)NCc2ccc(C)cc2)C1 (stereo not drawn)", "inactive"),
    ("Cc1ccc(OCCCC(=O)N(C)CC(=O)Nc2ccccc2Cl)cc1", "inactive"),
    ("CN(c1ccccc1)S(=O)(=O)c1nnc(NC(=O)C2CCCCC2)s1", "inactive"),
    ("Cc1noc(C)c1NC(=O)Nc1cccc2c1O[C@H](CN(C)S(=O)(=O)c1cccs1)[C@H](C)CN([C@@H](C)CO)C2=O", "inactive"),
    ("CCOC(=O)c1sc2cc([N+](=O)[O-])cc(SCCO)c2c1N", "inactive"),
    ("O=C(COC(=O)/C=C/c1ccc(OC(F)F)cc1)NC1CCCCCC1", "inactive"),
    ("COC(=O)c1cc(Br)ccc1OC(=O)c1cccnc1", "inactive"),
    ("CC(OC(=O)c1ccc(-n2cnnn2)cc1)C(=O)N(C)c1ccccc1 (stereo not drawn)", "inactive"),
]
